As shown below, each of these compounds has a reported Ka value.
Tested on: Human immunodeficiency virus 1
test_description: Binding affinity to hexameric C-terminal His-tagged HIV1 NL4-3 capsid protein A14C/E45C/W184A/M185A mutant expressed in Escherichia coli BL21 codon plus (DE3)RIL assessed as association rate constant by SPR analysis

Exercise: Item under review: CN(C(=O)[C@H](Cc1ccccc1)NC(=O)Cc1c[nH]c2c(N)cccc12)c1ccccc1 . Reported Ka?
Key: 4.76 10^5/M/s

====

Tested on: Human immunodeficiency virus 1
test_description: Binding affinity to hexameric C-terminal His-tagged HIV1 NL4-3 capsid protein A14C/E45C/W184A/M185A mutant expressed in Escherichia coli BL21 codon plus (DE3)RIL assessed as association rate constant by SPR analysis
Entries and their measured Ka follow.

Here's what some known entries look like.
>>> test_value("Cc1[nH]c2ccccc2c1CC(=O)N[C@@H](Cc1ccccc1)C(=O)N(C)c1ccccc1")
"4.75 10^5/M/s"
>>> test_value("CN(C(=O)C(Cc1ccccc1)NC(=O)Cc1n[nH]c2c(N)cccc12)c1ccc2[nH]ncc2c1 (racemic)")
"2.2 10^5/M/s"
>>> test_value("CN(C(=O)[C@H](Cc1ccccc1)NC(=O)Cc1n[nH]c2c(N)cccc12)c1ccc2[nH]ncc2c1")
"2.86 10^5/M/s"

Now for another entry.
Exercise: Name the reported Ka value associated with the compound Cc1[nH]c2ccccc2c1CC(=O)NC(Cc1ccccc1)C(=O)N(C)c1ccccc1 (racemic)
Key: 3.07 10^5/M/s

====

Each entry below lists one item and its recorded IC50 value.
System: Human immunodeficiency virus 1
test_description: Antiviral activity against HIV1 NL4-3 Env-deficient pseudotype virus infected in human U87.CD4.CCR5.CXCR4 cells assessed by reduction in viral infection in early stage measured after 48 hrs by luciferase activity based single-round infection assay
Type: functional, organism-based
condition_context: Human immunodeficiency virus 1, NL4-3, U87.CD4.CCR5.CXCR4, 48 h; read-out: IC50
Respond numerically; units are nM and should not be typed.

The following compounds have reported results that may help.
>>> test_value("CN(C(=O)[C@H](Cc1ccccc1)NC(=O)Cc1n[nH]c2c(N)cccc12)c1ccc2[nH]ncc2c1")
279
>>> test_value("Cc1[nH]c2ccccc2c1CC(=O)NC(Cc1ccccc1)C(=O)N(C)c1ccccc1 (racemic)")
55.5
>>> test_value("Cc1[nH]c2ccccc2c1CC(=O)NC(Cc1ccccc1)C(=O)N(C)c1ccc2[nH]ncc2c1 (racemic)")
38.3
>>> test_value("Cc1[nH]c2ccccc2c1CC(=O)N[C@@H](Cc1ccccc1)C(=O)N(C)c1ccc2[nH]ncc2c1")
20.6
>>> test_value("Cc1[nH]c2ccccc2c1CC(=O)N[C@@H](Cc1ccccc1)C(=O)N(C)c1ccccc1")
80
>>> test_value("CN(C(=O)[C@H](Cc1ccccc1)NC(=O)Cc1c[nH]c2c(N)cccc12)c1ccccc1")
62.1
>>> test_value("CN(C(=O)C(Cc1ccccc1)NC(=O)Cc1c[nH]c2c(N)cccc12)c1ccccc1 (racemic)")
97.2

Exercise: Given the compound CN(C(=O)C(Cc1ccccc1)NC(=O)Cc1n[nH]c2c(N)cccc12)c1ccc2[nH]ncc2c1 (racemic) , what is its reported IC50?
Key: 2420

====

test_description: Therapeutic index, ratio of CC50 for cytotoxicity against human 87.CD4.CCR5.CXCR4 cells to IC50 for antiviral activity against HIV1 NL4-3 virus in human 87.CD4.CCR5.CXCR4 cells
Type: toxicity, cell-based
condition_context: read-out: TI
The following compounds are shown together with reported selectivity ratio values.
Output: the number by itself.

The following compounds have reported results that may help.
>>> test_value("CN(C(=O)C(Cc1ccccc1)NC(=O)Cc1c[nH]c2c(N)cccc12)c1ccccc1 (racemic)")
859
>>> test_value("Cc1[nH]c2ccccc2c1CC(=O)NC(Cc1ccccc1)C(=O)N(C)c1ccc2[nH]ncc2c1 (racemic)")
2010
>>> test_value("CN(C(=O)[C@H](Cc1ccccc1)NC(=O)Cc1c[nH]c2c(N)cccc12)c1ccccc1")
1630

Exercise: Which selectivity ratio is reported for this compound? CN(C(=O)[C@H](Cc1ccccc1)NC(=O)Cc1n[nH]c2c(N)cccc12)c1ccc2[nH]ncc2c1
Key: 365

Exercise: Similarly, Cc1[nH]c2ccccc2c1CC(=O)N[C@@H](Cc1ccccc1)C(=O)N(C)c1ccc2[nH]ncc2c1 ?
Key: 2280

Exercise: And what about the compound CN(C(=O)C(Cc1ccccc1)NC(=O)Cc1n[nH]c2c(N)cccc12)c1ccc2[nH]ncc2c1 (racemic) ?
Key: 171
